Data origin: ChEMBL document CHEMBL5724914

Test: The drug is tested on WLS-077 corresponding to human gut metagenome with ENA study accession number: PRJEB37062 and ENA sample accession number: ERS12561750 for biotransformation under anaerobic condition. The drug concentrations were measured over 9 timepoints collected between 0 and 24 hours of incubation by liquid-chromatography-coupled mass spectrometry (LC–MS); also: call rule not given here
Conditions: 2 µM
Where a SMILES comes first, the peptide text is derived from it. [ ]: non-standard residue; d: D form. pGlu = O=C1CC[C@@H](C(=O)O)N1; Thz = O=C(O)[C@@H]1CSCN1

Molecule	Bacterial Biotransformation
Fc1ccc([C@@H]2CCNC[C@H]2COc2ccc3c(c2)OCO3)cc1 [PAROXETINE]	Compound NOT metabolized
N#Cc1ccc(C(c2ccc(C#N)cc2)n2cncn2)cc1 [LETROZOLE]	Compound NOT metabolized
CNC(=C[N+](=O)[O-])NCCSCc1csc(CN(C)C)n1 [NIZATIDINE]	Compound NOT metabolized
CC(C)NCC(O)c1ccc(NS(C)(=O)=O)cc1 (stereo not drawn) [SOTALOL]	Compound NOT metabolized
CCC(COC(=O)c1cc(OC)c(OC)c(OC)c1)(c1ccccc1)N(C)C.O=C(O)/C=C\C(=O)O (stereo not drawn)	Compound NOT metabolized
CCOC(=O)[C@H](CCc1ccccc1)N[C@H]1CCc2ccccc2N(CC(=O)O)C1=O [BENAZEPRIL]	Compound metabolized
O=C1CC[C@@H](C(=O)N2CSC[C@H]2C(=O)O)N1 [PIDOTIMOD] ([pGlu]-[Thz]-OH)	Compound NOT metabolized
COc1cc2nc(N3CCN(C(=O)c4ccco4)CC3)nc(N)c2cc1OC [PRAZOSIN]	Compound NOT metabolized
CN1CCC(=C2c3ccccc3CCc3cccnc32)CC1.O=C(O)/C=C\C(=O)O.O=C(O)/C=C\C(=O)O [AZATADINE MALEATE]	Compound NOT metabolized
CC(C)(C#N)c1cc(Cn2cncn2)cc(C(C)(C)C#N)c1 [ANASTROZOLE]	Compound NOT metabolized
CC(Oc1c(Cl)cccc1Cl)C1=NCCN1 (stereo not drawn) [LOFEXIDINE]	Compound NOT metabolized
NC(CO)(CO)CO.O=C(c1ccccc1)c1ccc2n1CCC2C(=O)O (stereo not drawn) [KETOROLAC TROMETHAMINE]	Compound metabolized
CS(=O)(=O)O.OC(CCN1CCCCC1)(c1ccccc1)c1ccccc1 [PRIDINOL METHANESULFONATE]	Compound NOT metabolized
Cc1ccnc2c1NC(=O)c1cccnc1N2C1CC1 [NEVIRAPINE]	Compound NOT metabolized
CN1CCN(CC/C=C2/c3ccccc3Sc3ccc(S(=O)(=O)N(C)C)cc32)CC1 [THIOTHIXENE]	Compound NOT metabolized
CC(C)c1c(C(=O)Nc2ccccc2)c(-c2ccccc2)c(-c2ccc(F)cc2)n1CC[C@@H](O)C[C@@H](O)CC(=O)O [ATORVASTATIN]	Compound metabolized
OC(CCN1CCCCC1)(c1ccccc1)C1CCCCC1 (stereo not drawn) [TRIHEXYPHENIDYL]	Compound metabolized
CC(C)OC(=O)C(C)(C)Oc1ccc(C(=O)c2ccc(Cl)cc2)cc1 [FENOFIBRATE]	Compound NOT metabolized
